# Measured target: Kappa-type opioid receptor (Homo sapiens, UniProt P41145)
# Sequence (P41145 whole entry): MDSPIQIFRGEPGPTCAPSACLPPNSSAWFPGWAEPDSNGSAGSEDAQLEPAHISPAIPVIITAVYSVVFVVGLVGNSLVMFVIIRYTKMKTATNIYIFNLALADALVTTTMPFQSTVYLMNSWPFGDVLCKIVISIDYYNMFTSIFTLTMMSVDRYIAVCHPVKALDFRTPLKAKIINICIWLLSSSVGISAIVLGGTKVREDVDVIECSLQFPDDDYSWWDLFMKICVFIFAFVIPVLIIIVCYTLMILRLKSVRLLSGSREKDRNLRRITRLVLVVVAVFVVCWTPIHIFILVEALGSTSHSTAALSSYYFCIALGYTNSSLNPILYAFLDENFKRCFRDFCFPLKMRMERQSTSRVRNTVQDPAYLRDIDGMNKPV
# Assay method text: Agonist activity at human kappa-opioid receptor expressed in CHO cell membrane assessed as [35S]GTPgammaS binding for 1 hr by liquid scintillation counting analysis relative to 10 uM U69593
# Assay type: functional, cell membranes
Active and inactive are the calls of the source. No cut-off for these calls is given here.
Value kind: Activity

Known results for molecules:
Molecule	Value kind	Recorded value
CC(=O)N1CC[C@@H](NC(=O)[C@@H](N)Cc2c(C)cc(O)cc2C)c2cc(Cc3ccccc3)ccc21	Activity	29%
Cc1cc(O)cc(C)c1C[C@H](N)C(=O)N[C@@H]1CCCc2ccc(CC3CCCCC3)cc21	Activity	25%
Cc1cc(O)cc(C)c1C[C@H](N)C(=O)N[C@@H]1CCNc2ccc(CC3Cc4ccccc4C3)cc21	Activity	38%
Cc1cc(O)cc(C)c1C[C@H](N)C(=O)N[C@@H]1CCNc2ccc(CC3CCc4ccccc43)cc21 (mixture of isomers)	Activity	52%
CC(=O)N1CC[C@@H](NC(=O)[C@@H](N)Cc2c(C)cc(O)cc2C)c2cc(Cc3cccc4ccccc34)ccc21	Activity	inactive

// Activity lookup, key: `CC(=O)N1CC[C@@H](NC(=O)[C@@H](N)Cc2c(C)cc(O)cc2C)c2cc(CC3Cc4ccccc4C3)ccc21`
60%

// Activity lookup, key: `Cc1cc(O)cc(C)c1C[C@H](N)C(=O)N[C@@H]1CCNc2ccc(CC3CCCCC3)cc21`
36%

// Activity lookup, key: `Cc1cc(O)cc(C)c1C[C@H](N)C(=O)N[C@@H]1CCCc2ccc(Cc3cccc4ccccc34)cc21`
inactive
